# Test system: M. tuberculosis H37Rv
# Test description: microbe, parasite or virus in culture
# Format: cell-based
# Condition context: Mycobacterium tuberculosis, aerobic conditions
Measurement type: MIC (µM)
Note: unit µM is implicit; provide only the numeric part.

INSERT INTO assay_data (entry_smiles, endpoint_result) VALUES
  ('Cc1ccc(-n2c(-c3ccc(Cl)cc3)cc(CN3CCOCC3)c2C)cc1', 1.3),
  ('CCCc1ccc(-n2c(-c3ccc(Cl)cc3)cc(CN3CCOCC3)c2C)cc1', 0.6),
  ('Cc1c(CN2CCOCC2)cc(-c2ccc(Cl)cc2)n1-c1ccc(C(C)C)cc1', 0.9),
  ('CSc1ccc(-c2cc(CN3CCOCC3)c(C)n2-c2ccc(F)cc2)cc1', 0.6),
  ('CCCc1ccc(-c2cc(CN3CCOCC3)c(C)n2-c2ccc(OC)cc2)cc1', 0.3),
  ('CCc1ccc(-c2cc(CN3CCOCC3)c(C)n2-c2ccc(OC)cc2)cc1', 0.3);

Incoming: Item COc1ccc(-c2cc(CN3CCOCC3)c(C)n2-c2ccc(F)cc2)cc1 with M. tuberculosis H37Rv - MIC?
Outgoing: 0.6

Incoming: State its MIC on M. tuberculosis H37Rv: COc1ccc(-c2cc(CN3CCOCC3)c(C)n2-c2ccc(C)cc2)cc1
Outgoing: 0.6

###

# Test description: physchem
# Condition context: pH 10.5
Assign labels as follows, please: true (1) for chromatographic logD below 5; false (0) for chromatographic logD equal to or exceeding 5.

# example entries with known answers
INSERT INTO assay_data (compound, discrete_label) VALUES
  ('COc1ccc(-n2c(-c3ccc(C(C)C)cc3)cc(CN3CCOCC3)c2C)cc1 [Compound 21]', 'true (1)'),
  ('CCCc1ccc(-n2c(-c3ccc(Cl)cc3)cc(CN3CCOCC3)c2C)cc1 [Compound 16]', 'false (0)');

Incoming: chromatographic logD strictly < 5 for this compound? Cc1ccc(-c2cc(CN3CCOCC3)c(C)n2-c2ccc(Cl)cc2)cc1 [Compound 10]
Outgoing: true (1)

###

# Test description: in vitro
# Condition context: African green monkey
// assign Condition met if CC50 at 72 h falls strictly below 200 µM, else Condition not met (ties count as Condition not met)

Reference set, count: 6
INSERT INTO assay_data (compound, discrete_label) VALUES
  ('COc1ccc(-c2cc(CN3CCSCC3)c(C)n2-c2ccc(F)cc2)cc1 [Compound 3]', 'Condition not met'),
  ('CCc1ccc(-n2c(-c3ccc(OC)cc3)cc(CN3CCOCC3)c2C)cc1 [Compound 23]', 'Condition met'),
  ('Cc1c(CN2CCOCC2)cc(-c2ccc(C(C)C)cc2)n1-c1ccc(F)cc1 [Compound 9]', 'Condition met'),
  ('CO[C@H]1/C=C/O[C@@]2(C)Oc3c(C)c(O)c4c(O)c(c(/C=N/N5CCN(C)CC5)c(O)c4c3C2=O)NC(=O)/C(C)=C\C=C\[C@H](C)[C@H](O)[C@@H](C)[C@@H](O)[C@@H](C)[C@H](OC(C)=O)[C@@H]1C [Rifampin, reference compound]', 'Condition not met'),
  ('CCc1ccc(-c2cc(CN3CCOCC3)c(C)n2-c2ccc(OC)cc2)cc1 [Compound 19]', 'Condition met'),
  ('Cc1ccc(-c2cc(CN3CCOCC3)c(C)n2-c2ccc(Cl)cc2)cc1 [Compound 10]', 'Condition met');

Incoming: Identify whether the compound Cc1ccc(-c2cc(CN3CCSCC3)c(C)n2-c2ccc(F)cc2)cc1 [Compound 2] records CC50 at 72 h below 200 µM.
Outgoing: Condition met
